Tested on: OVCAR-5
protocol notes: NCI tumour cell line growth inhibition, 48 h
Activity calls are given as the source filed them. Rule as the data show it: active = GI50 up to about 1.1 µM and inactive = higher.
Catalogue of GI50 readings, one per entry.

See these solved cases before continuing.
>  <compound>
COC(=O)C1(C)CCCC2(C)c3cc(OC)ccc3C(=O)C(Br)C12 (stereo not given)

>  <target entity>
OVCAR-5

>  <reported value>
8.02 µM (inactive)

$$$$
>  <compound>
Cc1c(C(=O)/C=C/c2ccccc2[N+](=O)[O-])[n+]([O-])c2ccccc2[n+]1[O-]

>  <target entity>
OVCAR-5

>  <reported value>
13.7 µM (inactive)

$$$$
>  <compound>
Cc1cc2ccc(OC(=O)c3ccc(NC(=N)N)cc3)cc2oc1=O

>  <target entity>
OVCAR-5

>  <reported value>
34.3 µM (inactive)

$$$$
>  <compound>
CC(C)(C)c1cc(C(O)(C(F)(F)F)C(F)(F)F)c2c(c1)C(C(F)(F)F)(C(F)(F)F)OC(c1ccccc1)(C(C)(C)C)N2 (stereo not given)

>  <target entity>
OVCAR-5

>  <reported value>
18.8 µM (inactive)

$$$$

Next compound, please.
### Prompt Recorded GI50 for CC1(C)OCC(C2OC3OC(C)(C)OC3C2N)O1 (stereo not given) , please?
### Response > 100 µM (inactive)

----------
Tested on: A549
protocol notes: NCI tumour cell line growth inhibition, 48 h
Activity calls are given as the source filed them. No stated cut-off is given here; in the data, active = GI50 up to about 1.1 µM and inactive = higher.
Catalogue of GI50 values

Worked set:
>  <compound>
CCCC(=O)NC1=C(NCC)C(=O)c2ccccc2C1=O

>  <measurement kind>
GI50

>  <reported value>
> 100 µM (inactive)

$$$$
>  <compound>
c1cc(-c2ccsc2-c2ccsc2)cs1

>  <measurement kind>
GI50

>  <reported value>
46.3 µM (inactive)

$$$$
>  <compound>
Cc1nc2nnc(C)n2c2c1C(=O)Nc1ccccc1N2

>  <measurement kind>
GI50

>  <reported value>
> 100 µM (inactive)

$$$$
>  <compound>
COc1cccc(NC(=O)/C(CC(=O)CC(c2ccccc2)c2c(O)c3ccccc3oc2=O)=N\NC(C)(C)C)c1OC (stereo not given)

>  <measurement kind>
GI50

>  <reported value>
87.7 µM (inactive)

$$$$
>  <compound>
CC(=O)[C@@]1(O)CC[C@H]2[C@@H]3C[C@H](C)C4=CC(=O)CC[C@]4(C)[C@H]3[C@@H](O)C[C@@]21C

>  <measurement kind>
GI50

>  <reported value>
60.1 µM (inactive)

$$$$

### Prompt Query the reported GI50 for A549; item: CN1CN(c2ccccc2)C2(CCN(C3Nc4ccccc4O3)CC2)C1=O (stereo not given)
### Response 27.3 µM (inactive)

### Prompt # get_value(readout= GI50, system= A549) for Nc1cc(C2CCCc3c2[nH]c2ccccc32)ccc1O (stereo not given)
### Response 24.6 µM (inactive)

### Prompt # value lookup — system A549, readout GI50, item COC(=O)[C@@H]1C[C@H]2[C@H](c3ccccc3Br)[C@@H](OC(C)=O)[C@@H](OCc3ccccc3)ON2O1
### Response > 100 µM (inactive)

### Prompt // map CC(=O)c1cccc(NC(=O)C(=O)c2c(O)oc3ccccc3c2=O)c1 to recorded GI50 (system: A549)
### Response > 100 µM (inactive)

### Prompt Look up GI50 with A549 for this compound: CSc1nc(-c2ccc(Cl)cc2)c(C#N)c(=O)n1C1OC(COC(C)=O)C(OC(C)=O)C(OC(C)=O)C1OC(C)=O (stereo not given)
### Response > 100 µM (inactive)

----------
Test system: PC-3
protocol notes: NCI tumour cell line growth inhibition, 48 h
Active and inactive are the calls of the source. Rule as the data show it: active = GI50 up to about 1.1 µM and inactive = higher.
Reported GI50 by item:

Answered examples (6):
>  <compound>
COC(=O)C1(C)CCCC2(C)c3cc(OC)ccc3C(=O)C(Br)C12 (stereo not drawn)

>  <target entity>
PC-3

>  <measurement kind>
GI50

>  <reported value>
9.73 µM (inactive)

$$$$
>  <compound>
O/N=N\c1nc(-c2cccnc2)nc2ccccc12

>  <target entity>
PC-3

>  <measurement kind>
GI50

>  <reported value>
> 100 µM (inactive)

$$$$
>  <compound>
CC(C)Oc1cccc(N2C(Nc3ccccc3)=Nc3ccncc3S2(=O)=O)c1

>  <target entity>
PC-3

>  <measurement kind>
GI50

>  <reported value>
6.12 µM (inactive)

$$$$
>  <compound>
COc1ccc2cc(NC(=O)N/N=C\c3ccc([N+](=O)[O-])cc3)ccc2c1

>  <target entity>
PC-3

>  <measurement kind>
GI50

>  <reported value>
27.6 µM (inactive)

$$$$
>  <compound>
COc1ccc(/C=C2/C(=O)C(c3ccccc3)N(c3ccccc3)C2=O)cc1OC (stereo not drawn)

>  <target entity>
PC-3

>  <measurement kind>
GI50

>  <reported value>
> 10 µM (inactive)

$$$$
>  <compound>
Nc1nc(-c2cccnc2)cc(-c2cc(-c3cccnc3)nc(N)n2)n1

>  <target entity>
PC-3

>  <measurement kind>
GI50

>  <reported value>
> 100 µM (inactive)

$$$$

### Prompt // GI50 lookup, key: CC1OC(OC2C(OC(=O)[C@]34CCC(C)(C)C[C@H]3C3=CC[C@@H]5[C@@]6(C)CC[C@H](OC7OC(CO)C(O)C(O)C7OC7OC(CO)C(O)C(O)C7O)C(C)(C)[C@@H]6CC[C@@]5(C)[C@]3(C)CC4)OCC(O)C2O)C(O)C(O)C1OC1OCC(O)C(O)C1O (stereo partly drawn)
### Response 12.4 µM (inactive)

### Prompt Could you tell me which GI50 is on file for Cn1c(=O)c2c(nc3[nH]c(=O)c(Br)cn32)n(C)c1=O ?
### Response > 100 µM (inactive)

----------
System: OVCAR-8
protocol notes: NCI tumour cell line growth inhibition, 48 h
Calls of active or inactive are those of the source. No stated cut-off is given here; in the data, active = GI50 up to about 1.1 µM and inactive = higher.
Respond using exactly one of the listed classes: Y (active), N (inactive)

>  <molecule>
CCCC/C=C1\CCC(CN2CCCC2)C1=O (stereo unspecified)

>  <class name>
N

$$$$
>  <molecule>
CC(C)C(C/C=C1/CC(CO)(COC(=O)c2ccccc2)OC1=O)C(C)C (stereo unspecified)

>  <class name>
N

$$$$
>  <molecule>
CCOC(=O)C(NC(=O)c1ccc(/N=N/N(C)C)cc1)C(C)C (stereo unspecified)

>  <class name>
N

$$$$
>  <molecule>
CC(C)Oc1cccc(N2C(Nc3ccccc3)=Nc3ccncc3S2(=O)=O)c1

>  <class name>
N

$$$$
>  <molecule>
CCOC(=O)Nc1cc2c(c(N)n1)N=C(c1ccc3ccccc3c1)CN2

>  <class name>
Y

$$$$
>  <molecule>
CN1B(c2ccccc2)N(C)C(=O)N(C)C1=O

>  <class name>
N

$$$$

### Prompt Can you look up the reported call for CC(=O)OCc1nnn2c1CCC2 for me?
### Response N

### Prompt Would you mind telling me which call this test gave COc1ccc(C(=O)/C=C2\c3ccccc3C(=O)N2C)cc1 ?
### Response N

### Prompt // return assay outcome for CN(C)c1n2c3cc([N+](=O)[O-])ccc3[n+]3c(N(C)C)n4ccccc4c3c2c2cccc[n+]12.[O-][Cl+3]([O-])([O-])[O-].[O-][Cl+3]([O-])([O-])[O-]
### Response N

### Prompt Which result was noted for this molecule in the test: C/C(=N\NC(=N)N)C(CN1CCOCC1)C(c1ccccc1)c1c(O)c2ccccc2oc1=O (stereo unspecified)
### Response N

### Prompt Any idea what this test logged for COc1cc(OC)c2c(=O)c(OC)c(-c3ccc4c(c3)OCO4)oc2c1 ?
### Response N

----------
Test system: OVCAR-8
protocol notes: NCI tumour cell line growth inhibition, 48 h
The source made the active and inactive calls. Cut-off read from the data, not from the text of the source: active = GI50 up to about 1.1 µM and inactive = higher.
Give one outcome, nothing more. List: yes (1) (active), no (0) (inactive)

>  <compound>
O=C1Nc2ccc(S(=O)(=O)O)cc2/C1=C1/Nc2ccc(Br)cc2C1=O

>  <class name>
no (0)

$$$$
>  <compound>
Cc1ccc(O)c(-c2cc(-c3cccc(Br)c3)c(C#N)c(N)n2)c1

>  <class name>
no (0)

$$$$
>  <compound>
CC1=NN(c2nc(N)nc(C(C)Sc3cc(Cl)c(C)cc3S(N)(=O)=O)n2)C(C)(C)C1 (centres undefined)

>  <class name>
no (0)

$$$$
>  <compound>
CCC1(N=[N+]=[N-])C(=O)Nc2cc(C)ccc2C1=O (centres undefined)

>  <class name>
no (0)

$$$$
>  <compound>
COc1cc([C@@H]2c3[nH]c4ccccc4c3C(Nc3ccc([N+](=O)[O-])cc3)[C@H]3COC(=O)N23)cc(OC)c1O (some centres undefined)

>  <class name>
yes (1)

$$$$
>  <compound>
O=C(O)CC(NC(=O)Nc1ccc([N+](=O)[O-])cc1)C(=O)Nc1ccc([N+](=O)[O-])cc1 (centres undefined)

>  <class name>
no (0)

$$$$
>  <compound>
COc1ccc(/C=C2/C(=O)C(c3ccccc3)N(c3ccccc3)C2=O)cc1OC (centres undefined)

>  <class name>
no (0)

$$$$
>  <compound>
COC(=O)Cc1c2n(c3ccccc13)C(=O)N1c3ccccc3C(CC(=O)OC)C21 (centres undefined)

>  <class name>
no (0)

$$$$
>  <compound>
O=C(N/N=C(COc1ccc([N+](=O)[O-])cc1)\N=C\c1ccncc1)c1ccncc1

>  <class name>
no (0)

$$$$
>  <compound>
COc1ccc2c(c1)C(=O)/C(=C/c1ccccc1)C2

>  <class name>
no (0)

$$$$

### Prompt Per the assay record, what outcome was assigned to CC(=O)c1cccc(NC(=O)C(=O)c2c(O)oc3ccccc3c2=O)c1 ?
### Response no (0)
